Form field: % Iext'n; seeded extension assay; 25 mole % (one value per entry).
Molecular target: natural β-amyloid peptide β-AP1-40 (human)
Sequence (peptide, as listed by the source): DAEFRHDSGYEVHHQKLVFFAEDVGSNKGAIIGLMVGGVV
Assay: cell-based or functional assay
* marks the point of attachment. Cholyl = C[C@H](CCC(=O)*)[C@H]1CC[C@H]2[C@@H]3[C@H](O)C[C@@H]4C[C@H](O)CC[C@]4(C)[C@H]3C[C@H](O)[C@]12C; iminobiotinyl = N=C1N[C@H]2[C@H](CS[C@H]2CCCCC(=O)*)N1
quantity: % Iext'n; seeded extension assay; 25 mole % (%)

>  <binder>
Cholyl-LVFFK-OH (SMILES CC(C)C[C@H](NC(=O)CC[C@@H](C)[C@H]1CC[C@H]2[C@@H]3[C@H](O)C[C@@H]4C[C@H](O)CC[C@]4(C)[C@H]3C[C@H](O)[C@]12C)C(=O)N[C@H](C(=O)N[C@@H](Cc1ccccc1)C(=O)N[C@@H](Cc1ccccc1)C(=O)N[C@@H](CCCCN)C(=O)O)C(C)C) [CA-LVFFK-oh]

>  <measured>
85

$$$$
>  <binder>
Cholyl-Val-Phe-Phe-OH (SMILES CC(C)[C@H](NC(=O)CC[C@@H](C)[C@H]1CC[C@H]2[C@@H]3[C@H](O)C[C@@H]4C[C@H](O)CC[C@]4(C)[C@H]3C[C@H](O)[C@]12C)C(=O)N[C@@H](Cc1ccccc1)C(=O)N[C@@H](Cc1ccccc1)C(=O)O) [CA-VFF-oh]

>  <measured>
0

$$$$
>  <binder>
Cholyl-KLVFF-NH2 [cholyl-Aβ16-20-amide]

>  <measured>
52

$$$$
>  <binder>
Cholyl-LVFF-OH [CA-LVFF-oh]

>  <measured>
51

$$$$
>  <binder>
Cholyl-LVFFA-OMe [CA-LVFFA-o-methyl]

>  <measured>
0

$$$$
>  <binder>
Cholyl-FKFVL-OH (SMILES CC(C)C[C@H](NC(=O)[C@@H](NC(=O)[C@H](Cc1ccccc1)NC(=O)[C@H](CCCCN)NC(=O)[C@H](Cc1ccccc1)NC(=O)CC[C@@H](C)[C@H]1CC[C@H]2[C@@H]3[C@H](O)C[C@@H]4C[C@H](O)CC[C@]4(C)[C@H]3C[C@H](O)[C@]12C)C(C)C)C(=O)O) [CA-FKFVL-oh]

>  <measured>
37

$$$$
>  <binder>
H-LVFFA-NH2 [h-LVFFA-nh2]

>  <measured>
70

$$$$
>  <binder>
H-KLVFF-NH2 [h-KLVFF-nh2]

>  <measured>
39

$$$$
>  <binder>
Cholyl-LVFFA-NH2 [CA-LVFFA-nh2]

>  <measured>
91

$$$$
>  <binder>
iminobiotinyl-KLVFF-OH [iminobiotinyl-Aβ16-20]

>  <measured>
0

$$$$
